# Measured target: human ether-à-go-go-related gene (hERG) potassium channel (human);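 note: peak tail current of the secondary pulse compared with the same well before compound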
# Assay comment: primary screen, population patch clamp on CHO cells stably expressing hERG; higher = less effect of the substance
In all, about 310,000 compounds went through this assay and about 14,000 (4.5%) showed an effect of 50% or more. Effects have a minus sign here. The entries come from a sample that favours strong results as a whole.
Quantity name: hERG current change (%, negative = inhibition) at 10uM (%)
Numeric answer only, unit % assumed.

API: value(readout= hERG current change (%, negative = inhibition) at 10uM, system= human ether-à-go-go-related gene (hERG) potassium channel (human), query= CCn1cc(C(=O)N2CCN(c3ccccc3F)CC2)c(=O)c2ccc(C)nc21 ) -5.94

CCN(CC)C(=O)Cn1cc(S(=O)(=O)CC(=O)Nc2ccc(C(N)=O)cc2)c2ccccc21 , same question. 18.2

COc1ccc(CCC(=O)N2CCCc3ccccc32)cc1 , same question. 6.02

Cc1cc(C(=O)N2CCN(c3ccccc3)CC2)c(C)o1 , same question. -1.46

COc1ccc(/C=N/NC(=O)Cc2csc(Nc3cccc(C(F)(F)F)c3)n2)cc1C , same question. 10.7

COc1ccc(C2=Nc3ccc(C)cc3C(c3ccccc3)N2CC(=O)NN)cc1 (centres unmarked) , same question. -23.2

CCn1cc(C(=O)N2CCN(c3ccc([N+](=O)[O-])cc3)CC2)c(=O)c2ccc(C)nc21 , same question. -70.9

CCN(CC)S(=O)(=O)c1ccc(OC(C)C)nc1 , same question. -1.16

Cc1ccc2[nH]c3c(=O)n(CC(=O)NCc4ccco4)ncc3c2c1 , same question. 21.9

Cc1c(Cl)cccc1-c1ccc(C(=O)N2CCN(c3ccc([N+](=O)[O-])cc3)CC2)o1 , same question. -14

CCc1nc(N(CC)CC)c2oc3ccccc3c2n1.Cl , same question. -21.1

CC(C)[C@H]1C(=O)Nc2ccccc2N1C(=O)N[C@@H](Cc1ccccc1)C(=O)N[C@@H](Cc1ccccc1)C(=O)O , same question. 5.66

CCc1nc(OCCN(CC)CC)c2oc3ccccc3c2n1.Cl , same question. -58.9

CCc1nc(OCCN(C)C)c2oc3ccccc3c2n1 , same question. -4.1

CN(C)S(=O)(=O)c1ccc(NC(=O)CSc2nc3ccccc3n2-c2ccccc2)cc1 , same question. 24.2

O=C1C2C3C=CC(C4CC34)C2C(=O)N1Cc1ccco1 (centres unmarked) , same question. 4.37

CC(=O)Oc1ccc2oc(-c3ccccc3)c(C(N)=O)c2c1 , same question. -14.1

CC(O)CN1CC(O)=C(c2nc3ccccc3s2)C1=N (centres unmarked) , same question. 3.89

Cc1cc(C(=O)N2CCN(c3ccc([N+](=O)[O-])cc3)CC2)c(C)o1 , same question. -73.5

COc1ccc(N2CCN(C(=O)c3cc(C)oc3C)CC2)cc1 , same question. 12.7

---

Would you kindly list hERG current change (%, negative = inhibition) at 10uM for each of these compounds?
# Measured target: human ether-à-go-go-related gene (hERG) potassium channel (human, UniProt Q12809);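 note: peak tail current of the secondary pulse compared with the same well before compound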
# Sequence (Q12809 whole entry, looked up): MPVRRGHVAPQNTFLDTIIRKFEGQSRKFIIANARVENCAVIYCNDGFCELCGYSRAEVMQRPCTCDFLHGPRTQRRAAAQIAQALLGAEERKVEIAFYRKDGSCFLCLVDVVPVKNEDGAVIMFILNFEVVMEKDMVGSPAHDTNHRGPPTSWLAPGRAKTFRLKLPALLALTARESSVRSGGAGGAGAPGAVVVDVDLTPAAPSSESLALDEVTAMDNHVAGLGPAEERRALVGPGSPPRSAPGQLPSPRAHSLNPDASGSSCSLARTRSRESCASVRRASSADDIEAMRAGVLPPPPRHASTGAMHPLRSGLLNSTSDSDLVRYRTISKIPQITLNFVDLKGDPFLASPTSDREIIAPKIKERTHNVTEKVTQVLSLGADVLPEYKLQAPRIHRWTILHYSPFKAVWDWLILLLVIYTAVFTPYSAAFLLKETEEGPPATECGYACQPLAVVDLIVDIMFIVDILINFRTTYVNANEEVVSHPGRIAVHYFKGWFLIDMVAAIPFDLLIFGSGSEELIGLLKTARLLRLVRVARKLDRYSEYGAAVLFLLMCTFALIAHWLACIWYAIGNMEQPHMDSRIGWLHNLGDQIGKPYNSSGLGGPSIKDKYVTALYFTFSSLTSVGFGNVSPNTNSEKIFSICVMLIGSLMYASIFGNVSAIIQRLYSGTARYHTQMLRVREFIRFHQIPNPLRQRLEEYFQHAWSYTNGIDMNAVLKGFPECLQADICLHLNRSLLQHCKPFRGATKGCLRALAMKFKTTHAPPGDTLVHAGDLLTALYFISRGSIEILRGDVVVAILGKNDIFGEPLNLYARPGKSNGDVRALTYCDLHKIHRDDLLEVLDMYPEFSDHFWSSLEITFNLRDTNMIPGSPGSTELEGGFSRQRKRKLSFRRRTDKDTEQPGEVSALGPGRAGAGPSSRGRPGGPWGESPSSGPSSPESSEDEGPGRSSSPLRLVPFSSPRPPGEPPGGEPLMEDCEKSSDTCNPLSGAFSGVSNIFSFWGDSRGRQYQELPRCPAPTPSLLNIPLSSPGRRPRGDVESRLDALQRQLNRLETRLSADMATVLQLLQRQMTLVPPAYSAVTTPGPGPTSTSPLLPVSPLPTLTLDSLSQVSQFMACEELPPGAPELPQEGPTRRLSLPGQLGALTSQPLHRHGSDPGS
# Assay comment: primary screen, population patch clamp on CHO cells stably expressing hERG; higher = less effect of the substance
The whole screen tested about 310,000 compounds, of which about 14,000 (4.5%) showed an effect of 50% or more. The effect is printed as a negative number. The list comes from a sample in which strong results are over-represented; it also holds close analogues and randomly drawn compounds.
Numeric answer only, unit % assumed.

Reported hERG current change (%, negative = inhibition) at 10uM for O=C(CN1CCN(C(=O)c2ccccc2)CC1)Nc1ncc(Br)cc1Br : what is it? -78.1

C/C(=N\NC(=O)CN1CCN(S(=O)(=O)c2ccc(C)cc2)CC1)c1ccncc1 , same question. -77.1

Cc1c(NC(=O)CCC2CCCCC2)cc(C(=O)N2CCOCC2)cc1[N+](=O)[O-] , same question. -10.2

Cc1n[nH]c(=S)n(NC(=O)CC(=O)Nn2c(=S)[nH]nc(C)c2=O)c1=O , same question. 45.4

CC(C)C[C@H]1CN=C(Nc2ccccc2)N1CC1CCCC1 , same question. -24

COc1ccc(-c2cc(C(=O)NCC3CCCO3)c3ccccc3n2)c(OC)c1 (stereo not drawn) , same question. -0.667

CCCCOc1cc(CC2CNC(=O)N2)ccc1OC (stereo not drawn) , same question. -2.83

CCCCC(c1nnnn1C1CCCC1)N1CCN(C(=O)c2ccco2)CC1.Cl (stereo not drawn) , same question. -47

CCCCCCC/C=N/Nc1nnc(Cc2ccccc2)c(=O)[nH]1 , same question. 33.2

COc1ccc(-c2c(C(F)(F)F)oc3cc(OCC(=O)Nc4ccccc4C(F)(F)F)ccc3c2=O)cc1OC , same question. 4.91

COC(=O)C1C(O)CCC2CN3CCc4c([nH]c5ccccc45)C3CC21 (stereo not drawn) , same question. -21.1

COc1ccc(C2(c3ccc(OC)cc3)NC(=O)N(CC(=O)Nc3ccc(OC(F)F)cc3)C2=O)cc1 , same question. -19.2

O=C(O)C1CC(=O)N(c2ccc(OCc3ccc(Br)cc3)cc2)C1 (stereo not drawn) , same question. 6.71

COc1ccc(OCC(O)CNC(=O)c2ccc(OC)cc2)cc1 (stereo not drawn) , same question. 14.9

O=C(COc1cccc(-n2cnnn2)c1)N1CCOCC1 , same question. 2.13

CCC(CC)C(=O)Nc1cc(C(=O)NCCc2ccccc2)ccc1Cl , same question. -8.24

CCc1cc2c3c(c1)C(C)CC(C)(C)N3C(=O)C2=O (stereo not drawn) , same question. -15.6

Cc1ccc(Nc2ncnc(N)n2)cc1 , same question. 9.24

CCOC(=O)C1(CC2CC2)CCN(Cc2ccc3cccc(F)c3n2)CC1 , same question. -48.3

COc1ccc(C(=O)Nc2ccccc2C(=O)NCC2CCCO2)cc1 (stereo not drawn) , same question. 4.28

CCCC(c1nnnn1C(C)(C)CC)N1CCN(C2CCCC2)CC1.Cl (stereo not drawn) , same question. -35.3

CCOC(=O)C1(CC2CCCCO2)CCN(S(=O)(=O)c2cccc(F)c2)CC1 (stereo not drawn) , same question. 29.8

CC(C)C[C@H]1CN=C(Nc2ccccc2)N1CC1CCCCC1 , same question. -45.7

CCOc1cc(/C=C/c2nc3ccccc3c(=O)[nH]2)ccc1O , same question. 13.4

O=C(COC(=O)c1ccc(Br)cc1)Nc1cccnc1Cl , same question. -3.51

Cc1ccc(NC2c3ccccc3C(=O)N2CCN2CCOCC2)cc1 (stereo not drawn) , same question. -12.9

CCOC(=O)C1(CC2CC2)CCN(Cc2cn[nH]c2-c2cccc(F)c2)CC1 , same question. -91.6

CCCCC(c1nnnn1C1CCCC1)N1CCN(C2CCCC2)CC1.Cl (stereo not drawn) , same question. -85.6

S=C(NC1CC1)SCc1ccco1 , same question. -11.5

COc1ccc(CCNC(=O)CCn2c(=O)c3ccccc3n(CC(=O)NCC3CCCO3)c2=O)cc1OC (stereo not drawn) , same question. 8.86

O=[N+]([O-])c1cc(Cl)ccc1Nc1ccccc1 , same question. 9.85

COc1ccc(-n2nc(C(=O)NCC3CCCO3)c3ccccc3c2=O)cc1 (stereo not drawn) , same question. 31.7

O=C(CN1CCOCC1)Nc1ncc(Br)cc1Br , same question. -20.3

CC(C)C[C@H]1CN=C(Nc2ccccc2)N1CC1CCC(C)CC1 (stereo partly drawn) , same question. -50.3

O=C(CN1CCN(C(=O)c2ccccc2)CC1)Nc1ccc(Br)cn1 , same question. -74.4

CCOC(=O)C1(CC2CCCCO2)CCN(Cc2cc3ccccc3[nH]2)CC1 (stereo not drawn) , same question. -46.1

CCOC(=O)C1(Cc2ccccc2)CCN(Cc2cn[nH]c2-c2ccccc2)CC1 , same question. -28.8

CCCC(c1nnnn1C1CCCCC1)N1CCN(C2CCCC2)CC1.Cl (stereo not drawn) , same question. -46.4

COc1ccc(CCn2c(=N)c(C(=O)NCC3CCCO3)cc3c(=O)n4ccccc4nc32)cc1OC (stereo not drawn) , same question. -75.9

COC(=O)[C@H]1[C@H]2C[C@H]3c4[nH]c5ccccc5c4CCN3C[C@@H]2CC[C@@H]1O , same question. -12.5

CC(=O)N1C2CCCCC2S[C@H]2CCCCC21 (stereo partly drawn) , same question. 18.9

O=C(Nc1ccccc1)N1CCC(c2ccccc2)C1 (stereo not drawn) , same question. -4.49
